The origin of these recorded values is ChEMBL document CHEMBL4130582.

System: RPMI-8226
PROTOCOL: Cytotoxicity against human RPMI8226 cells after 72 hrs by Alamar Blue assay
Assay type: functional, cell-based
SETTINGS: RPMI-8226, 72 h
READOUT LABEL: IC50 (µM)
Value expressed in µM; do not type the unit.

// query Looking for the measured IC50 of "H-IPLWPVIP-OH" , can you help?
// result 16.4

###

// reported pIC50 for each item listed
PROTOCOL: Cytotoxicity against human MM1R cells after 72 hrs by Alamar Blue assay
Assay type: functional, cell-based
SETTINGS: MM.1R
pIC50: −log10 of the molar value.

1. H-PVIPIPLW-OH = < 4.70

Query substance follows.
// query Looking for the measured pIC50 of "H-IPLWPVIP-OH" , can you help?
// result < 4.70
